SUBJECT_OF_TEST: ZFP SBS#798 (synthetic, UniProt P08047)
Sequence (P08047 other isoform, or with tags, fused parts or gaps): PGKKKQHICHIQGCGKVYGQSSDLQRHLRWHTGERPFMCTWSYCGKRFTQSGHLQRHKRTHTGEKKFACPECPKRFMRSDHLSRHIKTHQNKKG
PROCEDURE_SUMMARY: EMSA
MEASUREMENT_CONDITIONS: tags: MBP fusion
TEST_READOUT: Kd (nM)
Numbers only, in nM.

For this binder ( GGGGGAGCTG (dsDNA) DNA 1: GGGGGAGCTG DNA 2: CAGCTCCCCC ), measured Kd is 3

Taken from patent US20030068675.
